# Target: Protein deacetylase HDAC6 (Homo sapiens, UniProt Q9UBN7)
# Sequence (Q9UBN7 whole entry): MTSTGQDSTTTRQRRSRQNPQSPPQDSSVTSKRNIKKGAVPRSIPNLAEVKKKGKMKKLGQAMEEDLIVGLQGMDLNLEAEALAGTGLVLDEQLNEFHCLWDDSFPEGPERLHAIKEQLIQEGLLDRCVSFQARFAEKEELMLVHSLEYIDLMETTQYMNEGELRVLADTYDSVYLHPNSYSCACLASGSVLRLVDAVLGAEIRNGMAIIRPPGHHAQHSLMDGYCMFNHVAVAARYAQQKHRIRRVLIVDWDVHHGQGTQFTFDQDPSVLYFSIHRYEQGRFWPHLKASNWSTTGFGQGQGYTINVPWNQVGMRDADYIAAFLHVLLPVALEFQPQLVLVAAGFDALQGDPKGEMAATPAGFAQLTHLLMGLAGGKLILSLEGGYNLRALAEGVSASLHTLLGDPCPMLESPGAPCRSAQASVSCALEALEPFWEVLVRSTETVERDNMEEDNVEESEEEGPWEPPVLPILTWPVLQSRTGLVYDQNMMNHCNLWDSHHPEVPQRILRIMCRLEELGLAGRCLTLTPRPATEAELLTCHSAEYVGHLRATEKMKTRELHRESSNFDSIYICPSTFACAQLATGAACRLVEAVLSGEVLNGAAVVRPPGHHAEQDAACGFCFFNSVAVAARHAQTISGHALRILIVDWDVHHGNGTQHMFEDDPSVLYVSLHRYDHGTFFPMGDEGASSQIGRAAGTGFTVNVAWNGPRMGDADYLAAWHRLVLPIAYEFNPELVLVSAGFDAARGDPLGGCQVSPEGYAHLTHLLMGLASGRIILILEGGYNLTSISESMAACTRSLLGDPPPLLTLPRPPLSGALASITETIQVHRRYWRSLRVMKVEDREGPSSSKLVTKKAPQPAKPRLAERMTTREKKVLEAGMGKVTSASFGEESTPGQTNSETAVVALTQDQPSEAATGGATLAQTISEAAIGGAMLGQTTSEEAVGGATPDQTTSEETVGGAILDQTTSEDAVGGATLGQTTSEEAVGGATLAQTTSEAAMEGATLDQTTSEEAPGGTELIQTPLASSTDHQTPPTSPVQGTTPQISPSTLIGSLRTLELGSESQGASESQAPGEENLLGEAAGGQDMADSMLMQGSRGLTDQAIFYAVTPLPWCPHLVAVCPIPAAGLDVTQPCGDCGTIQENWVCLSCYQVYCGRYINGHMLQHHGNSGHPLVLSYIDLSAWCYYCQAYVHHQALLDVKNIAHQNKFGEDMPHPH
pIC50: −log10 of the molar value.
Compiled notes: published pIC50 values involving Protein deacetylase HDAC6 (Homo sapiens, UniProt Q9UBN7).
Readout type: pIC50

- Test smiles: "COc1cc(OC)cc(N(CCCCCC(=O)NO)c2ccc3ncc(-c4cnn(C)c4)nc3c2)c1"
  pIC50: 8.20

a. O=C(CCCCCCn1cc(-c2ccc3ncnc(Nc4ccc(OCc5cccc(F)c5)c(Cl)c4)c3c2)nn1)NO
b. CCCNc1ccc2c3c(cccc13)C(=O)N(CCCC(=O)NO)C2=O
Query :: Min pIC50? a | b Return value: the label identifying the chosen record.
Result :: b
